B1: FBXO39 (parent)
chain: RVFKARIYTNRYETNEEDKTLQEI

# Variants of: B1
# test.name: protein stability index of a GFP-peptide fusion (GPS, HEK-293T) (PSI 1-6); higher = more stable;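 note: lentivirally expressed fusions sorted by FACS into six bins by GFP to DsRed ratio, PSI derived from sequencing read proportions per bin multiplied by bin number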
# setup.conditions: c terminus: a fixed tail appended
So basically: protein stability index at 3 or higher? That is True. Lower than 3? That is False.

Take a look at these entries with their results.
Data request: Given `RVFKARIYTNRYENNEEDKTLQEI` , state whether its protein stability index is at least 3.
Data returned: False

Data request: Given `RVFKARIYTNRFETNEEDKTLQEI` , state whether its protein stability index is at least 3.
Data returned: True

Data request: Given `YVFKARIYTNRYETNEEDKTLQEI` , state whether its protein stability index is at least 3.
Data returned: False

New cases:
Data request: Given `RVFKARIYTNRYETNEEDKNLQEI` , state whether its protein stability index is at least 3.
Data returned: False

Data request: Given `RVFKARIYTNRYETNEEDKELQEI` , state whether its protein stability index is at least 3.
Data returned: False
